Origin of the recorded values: BindingDB's records for doi:10.1021/jm058276a

Target chain: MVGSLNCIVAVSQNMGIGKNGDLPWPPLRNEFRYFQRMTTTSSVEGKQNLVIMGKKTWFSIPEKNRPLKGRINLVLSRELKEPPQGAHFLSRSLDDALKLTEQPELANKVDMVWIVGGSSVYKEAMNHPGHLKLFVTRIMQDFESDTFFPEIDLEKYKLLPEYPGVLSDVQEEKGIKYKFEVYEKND
Measured Metric: IC50

> print(dat)
                                smiles.code  measured.metric  observed.value
1  CCc1[nH]c2nc(N)[nH]c(=O)c2c1Sc1ccc(Cl)c(Cl)c1             IC50         > 27 µM
2      CCc1[nH]c2nc(N)nc(O)c2c1Sc1ccc(F)cc1             IC50         > 32 µM
3  CCc1[nH]c2nc(N)[nH]c(=O)c2c1Sc1cc(C(F)(F)F)cc(C(F)(F)F)c1             IC50         > 24 µM
